# ASSAY TARGET: Glucocorticoid receptor (Homo sapiens)
# TEST METHOD NOTES: Inhibition of Dexamethasone stimulated transcriptional activity in CHO cells expressing glucocorticoid receptor
# Assay type: functional, cell-based

>  <COMPOUND>
CC#C[C@]1(O)CC[C@H]2[C@@H]3CCC4=CC(=O)CCC4=C3[C@@H](c3ccc(N(C)CCCC4OC(C(=O)O)C(O)C(O)C4O)cc3)C[C@@]21C (stereo partly specified)

>  <IC50 [nM]>
550

$$$$

====

# ASSAY TARGET: Glucocorticoid receptor (Rattus norvegicus, UniProt P06536)
# Sequence (P06536 whole entry): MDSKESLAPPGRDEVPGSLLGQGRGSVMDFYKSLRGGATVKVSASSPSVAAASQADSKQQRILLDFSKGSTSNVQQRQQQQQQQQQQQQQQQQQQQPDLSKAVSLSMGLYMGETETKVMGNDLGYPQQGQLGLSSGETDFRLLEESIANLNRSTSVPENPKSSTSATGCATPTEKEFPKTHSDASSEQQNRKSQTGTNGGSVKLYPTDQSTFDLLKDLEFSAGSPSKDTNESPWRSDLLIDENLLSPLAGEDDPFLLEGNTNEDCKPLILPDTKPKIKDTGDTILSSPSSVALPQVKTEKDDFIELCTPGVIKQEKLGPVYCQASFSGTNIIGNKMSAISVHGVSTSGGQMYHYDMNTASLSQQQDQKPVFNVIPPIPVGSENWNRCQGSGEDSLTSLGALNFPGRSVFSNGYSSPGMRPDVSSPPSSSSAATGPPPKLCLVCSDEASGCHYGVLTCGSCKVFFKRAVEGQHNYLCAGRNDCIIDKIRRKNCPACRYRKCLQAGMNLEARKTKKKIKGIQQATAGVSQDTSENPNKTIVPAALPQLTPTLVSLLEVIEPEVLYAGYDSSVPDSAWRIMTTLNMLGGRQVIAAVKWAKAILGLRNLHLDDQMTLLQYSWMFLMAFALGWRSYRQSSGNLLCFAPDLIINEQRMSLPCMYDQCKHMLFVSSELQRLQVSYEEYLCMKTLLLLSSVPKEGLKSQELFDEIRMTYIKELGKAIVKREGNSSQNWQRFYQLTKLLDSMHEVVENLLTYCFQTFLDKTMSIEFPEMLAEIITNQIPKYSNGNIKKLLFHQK
# TEST METHOD NOTES: Inhibition of prednisilone-induced tyrosine aminotransferase (TAT) activity in rat hepatocytes
ENDPOINT LABEL: IC50 (nM)

>  <MOLECULE>
CC#C[C@]1(O)CC[C@H]2[C@@H]3CCC4=CC(=O)CCC4=C3[C@@H](c3ccc(N(C)CCCC4OC(C(=O)O)C(O)C(O)C4O)cc3)C[C@@]21C (stereo partly specified)

>  <ENDPOINT LABEL>
IC50

>  <UNIT STRING>
nM

>  <RESULT NUMBER>
2800

$$$$

====

# ASSAY TARGET: Glucocorticoid receptor (Homo sapiens, UniProt P04150)
# Sequence (P04150 whole entry): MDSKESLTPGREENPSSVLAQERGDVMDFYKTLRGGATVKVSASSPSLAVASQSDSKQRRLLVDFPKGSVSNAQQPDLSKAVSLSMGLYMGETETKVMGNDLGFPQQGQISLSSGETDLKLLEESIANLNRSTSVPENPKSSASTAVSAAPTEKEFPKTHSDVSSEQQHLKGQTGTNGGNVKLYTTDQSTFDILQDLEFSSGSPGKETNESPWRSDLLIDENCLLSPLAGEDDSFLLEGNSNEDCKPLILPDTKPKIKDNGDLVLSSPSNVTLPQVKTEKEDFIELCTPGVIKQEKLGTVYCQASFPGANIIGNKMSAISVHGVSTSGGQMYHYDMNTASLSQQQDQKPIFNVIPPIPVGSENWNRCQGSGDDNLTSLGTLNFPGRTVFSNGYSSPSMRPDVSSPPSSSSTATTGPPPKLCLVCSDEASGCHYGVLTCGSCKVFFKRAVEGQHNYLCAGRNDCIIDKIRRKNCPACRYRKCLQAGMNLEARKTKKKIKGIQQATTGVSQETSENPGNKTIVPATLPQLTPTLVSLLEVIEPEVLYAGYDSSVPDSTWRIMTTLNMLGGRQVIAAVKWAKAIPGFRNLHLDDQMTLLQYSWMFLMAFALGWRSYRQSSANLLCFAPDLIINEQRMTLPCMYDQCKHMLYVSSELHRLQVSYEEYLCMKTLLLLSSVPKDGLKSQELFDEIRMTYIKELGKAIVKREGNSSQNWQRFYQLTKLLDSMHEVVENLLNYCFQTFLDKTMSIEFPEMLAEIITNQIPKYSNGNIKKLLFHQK
# TEST METHOD NOTES: Inhibition of Dexamethasone binding to Glucocorticoid receptor
pIC50: −log10 of the molar value.

>  <COMPOUND>
CC#C[C@]1(O)CC[C@H]2[C@@H]3CCC4=CC(=O)CCC4=C3[C@@H](c3ccc(N(C)CCCC4OC(C(=O)O)C(O)C(O)C4O)cc3)C[C@@]21C (stereo partly specified)

>  <pIC50>
7.78

$$$$
